# SYSTEM_UNDER_TEST: aldose reductase (Bos taurus, UniProt P16116)
# Construct: partially purified aldose reductase is isolated in known manner from bovine lenses
# PROTOCOL_DETAILS: In vitro inhibition of partially purified aldose reductase from bovine lenses, spectrophotometric
pIC50: −log10 of the molar value.
MEASUREMENT_TYPE: pIC50

molecule Cc1cc(NC(=O)C(=O)N(C(C)C)C(C)C)cc(C)c1S(=O)(=O)C[N+](=O)[O-] [Example 2] , pIC50 observed: ~7.22
